Assay: RP, Waters ACQUITY UPLC BEH C18, 38 °C, 0.24 mL/min; A: water + 0.1% formic acid, pH 3; B: acetonitrile + 0.1% formic acid, pH 3; gradient (min/%B) 0/0 0.25/0 0.4/9 0.8/17 1.9/100 2.1/100 2.11/0 3/0
Details: stereoisomer not certain
Structures can show the parent of a compound that is named as a salt.
// returns class 0 unless LC retention time is strictly below 0.2 min, in which case class 1

Determine if N[C@@H](Cc1ccccc1)C(=O)O [L-(-)-Phenylalanine] shows LC retention time strictly lower than 0.2 min.
class 0

Determine if CC(O)(CC(=O)O)CC(=O)O [3-Hydroxy-3-methylglutarate] shows LC retention time strictly lower than 0.2 min.
class 0

Determine if Cc1cn(C2CC(O)C(CO)O2)c(=O)[nH]c1=O (stereo not drawn) shows LC retention time strictly lower than 0.2 min.
class 0

Determine if `CC(C)=CCNc1ncnc2nc[nH]c12` shows LC retention time strictly lower than 0.2 min.
class 0

Determine if OCC1OC(OC2C(O)C(O)C(O)C(O)C2O)C(O)C(O)C1O (stereo not drawn) [Galactinol Dihydrate] shows LC retention time strictly lower than 0.2 min.
class 1

Determine if `O=c1cc[nH]c(=O)[nH]1` shows LC retention time strictly lower than 0.2 min.
class 0

Determine if COc1cc(-c2[o+]c3cc(O)cc(OC4OC(CO)C(O)C(O)C4O)c3cc2OC2OC(CO)C(O)C(O)C2O)cc(OC)c1O (stereo not drawn) [Malvin chloride] shows LC retention time strictly lower than 0.2 min.
class 0

Determine if CC(O)CN (stereo not drawn) [R-(-)-1-Amino-2-propanol] shows LC retention time strictly lower than 0.2 min.
class 1

Determine if `CCC[C@H](N)C(=O)O` shows LC retention time strictly lower than 0.2 min.
class 0

Determine if OCC1OC(OC2C(O)C(CO)OC2(CO)OC2OC(CO)C(O)C(O)C2O)C(O)C(O)C1O [D-(+)-Melezitose hydrate] shows LC retention time strictly lower than 0.2 min.
class 0

Continuing:
Determine if `C[C@@H](O)[C@H](N)CC(=O)O` shows LC retention time strictly lower than 0.2 min.
class 1

Determine if O=CC(O)CO (racemic) shows LC retention time strictly lower than 0.2 min.
class 1

Determine if `NC1(C(=O)O)CCCC1` shows LC retention time strictly lower than 0.2 min.
class 0

Determine if `OCCNCCO` shows LC retention time strictly lower than 0.2 min.
class 1

Determine if O=C(O)C[C@@H]1CCCN1 [L-beta-homoproline-HCl] shows LC retention time strictly lower than 0.2 min.
class 0

Determine if O=C(O)CC(O)C(=O)O [L-(-)-Malic acid] shows LC retention time strictly lower than 0.2 min.
class 0

Determine if OCC1OC(Oc2cc3c(O)cc(O)cc3[o+]c2-c2cc(O)c(O)c(O)c2)C(O)C(O)C1O (stereo not drawn) [Delphinidin-3-O-beta-glucopyranoside] shows LC retention time strictly lower than 0.2 min.
class 0

Determine if c1cnc2c(c1)ccc1cccnc12 [1,10-Phenanthroline monohydrate] shows LC retention time strictly lower than 0.2 min.
class 0

Determine if `CC(C)[C@H](N)C(=O)O` shows LC retention time strictly lower than 0.2 min.
class 0

Determine if `CN(C)c1ccccc1` shows LC retention time strictly lower than 0.2 min.
class 0

Determine if C[C@@H](N)P(=O)(O)O [(S)-(+)-1-Aminoethylphosphonic acid] shows LC retention time strictly lower than 0.2 min.
class 1

Determine if `COc1cc(-c2oc3cc(O)cc(O)c3c(=O)c2O)ccc1O` shows LC retention time strictly lower than 0.2 min.
class 0

Determine if CC(=O)NC1C(O)CC(O)(C(=O)O)OC1C(O)C(O)CO (stereo not drawn) [N-acetylneuraminic acid,Type IV-S,Synthetic] shows LC retention time strictly lower than 0.2 min.
class 1

Determine if C[S+](CCC(N)C(=O)[O-])CC1OC(n2cnc3c(N)ncnc32)C(O)C1O [S-(5'-Adenosyl)-L-methionine chloride] shows LC retention time strictly lower than 0.2 min.
class 1

Determine if `C[N+](C)(C)CC(=O)[O-]` shows LC retention time strictly lower than 0.2 min.
class 1
